- Test system: Jurkat cells
- test protocol: Sirolimus (rapamycin) dose response of FKBP13 constructs stably transduced into Jurkat cells, flow cytometry
- Assay type: cell-based
- measurement parameters: rapamycin; Table 14; read-out: Rapamycin EC90
Listing of entries alongside the reported EC90.
# unit: µM | format: bare number

What does the data say about its EC90? Entry: FKBP-186 (protein, Description of sequence: Construct Name: FKBP-186; Mutation(s): Q72R Q84E A117W V85R DRD M54A G116E) HCPIKSRKGDVLHAHYTGKLEDGTEFDSSLPRNQPFVFSLGTGERIKGWDQGLLGMCEGEKRKLVIPSELGYGEREWPPKIPGGATLVFEVELLKIER
5.87

Please answer likewise for FKBP-189 (protein, Description of sequence: Construct Name: FKBP-189; Mutation(s): Q72R Q84E A117W V85R DRD M54A H53G R72L) HCPIKSRKGDVLGAHYTGKLEDGTEFDSSLPLNQPFVFSLGTGERIKGWDQGLLGMCEGEKRKLVIPSELGYGERGWPPKIPGGATLVFEVELLKIER
5.47

Please answer likewise for FKBP-182 (protein, Description of sequence: Construct Name: FKBP-182; Mutation(s): Q72R Q84E A117W V85R DRD M54A M96W) HCPIKSRKGDVLHAHYTGKLEDGTEFDSSLPRNQPFVFSLGTGERIKGWDQGLLGWCEGEKRKLVIPSELGYGERGWPPKIPGGATLVFEVELLKIER
3.84
